This section presents variants with their documented self-cleavage values.
B1: Osa-1-4 twister ribozyme (parent)
chain: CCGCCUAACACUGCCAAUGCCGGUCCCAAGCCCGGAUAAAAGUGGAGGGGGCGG

variants of: B1; test: self-cleavage, relative activity (ratio to wild type); higher = more cleavage; co-transcriptional
experimentalReadout: self-cleavage

1. C27G G50C | 0.05
2. A46C C31G | 0.02
3. G30C G54A | 0.05
4. U12A U24C | 0.08
5. C33G C9G | 0.07
6. G22U G48A | 0.04
7. G30A U12C | 0.03
8. C25G U18C | 0.13
9. A46U G34C | 0.07
10. C21U G54C | 0.89
11. C14U G50U | 0.18

Reference source: the RNAGym collection of RNA variant scans (doi:10.1002/anie.201605470)
